Tested on: SMMC-7721
protocol.description: Cytotoxicity against human SMMC7721 cells assessed as reduction in cell viability after 48 hrs by MTT assay
Format: functional, cell-based
reported.conditions: SMMC-7721, 48 h
Record form. Attribute: IC50. Fill in for each entry.
Answers are plain numbers, in µM.

Some molecules with known IC50 results, for comparison:
smiles.input	assay.readout	observed
C[C@H]1O[C@@H](O[C@H]2[C@H](O[C@H]3CC[C@@]4(C)[C@@H](CC[C@]5(C)[C@@H]4C(=O)C=C4[C@@H]6CC(C)(C)CC[C@]6(C(=O)NCC(=O)O)CC[C@]45C)[C@]3(C)CO)OC[C@H](O)[C@@H]2O)[C@H](O)[C@H](O)[C@H]1O	IC50	46.7
C[C@H]1O[C@@H](O[C@H]2[C@H](O[C@H]3CC[C@@]4(C)[C@@H](CC[C@]5(C)[C@@H]4CC(=O)[C@]46OC(=O)[C@@]7(CCC(C)(C)C[C@H]74)CC[C@@]56C)[C@]3(C)CO)OC[C@H](O)[C@@H]2O)[C@H](O)[C@H](O)[C@H]1O	IC50	70.6
CC(=O)OC[C@@]1(C)[C@@H]2CC[C@]3(C)[C@H](CC=C4[C@@H]5CC(C)(C)CC[C@]5(C(=O)O)CC[C@]43C)[C@@]2(C)CC[C@@H]1O[C@@H]1OC[C@H](OC(C)=O)[C@H](OC(C)=O)[C@H]1O[C@@H]1O[C@H](C)[C@H](OC(C)=O)[C@@H](OC(C)=O)[C@H]1OC(C)=O	IC50	69.9
C[C@H]1O[C@@H](O[C@H]2[C@H](O[C@H]3CC[C@@]4(C)[C@@H](CC[C@]5(C)[C@@H]4C/C(=N/O)[C@@H]4[C@@H]6CC(C)(C)CC[C@]6(C(=O)O)CC[C@]45C)[C@]3(C)CO)OC[C@H](O)[C@@H]2O)[C@H](O)[C@H](O)[C@H]1O	IC50	69.4
C[C@H]1O[C@@H](O[C@H]2[C@H](O[C@H]3CC[C@@]4(C)[C@@H](CC[C@]5(C)[C@@H]4CC=C4[C@@H]6CC(C)(C)CC[C@]6(C(=O)NCCCC(=O)O)CC[C@]45C)[C@]3(C)CO)OC[C@H](O)[C@@H]2O)[C@H](O)[C@H](O)[C@H]1O	IC50	27.3
C[C@H]1O[C@@H](O[C@H]2[C@H](O[C@H]3CC[C@@]4(C)[C@@H](CC[C@]5(C)[C@@H]4CC=C4[C@@H]6CC(C)(C)CC[C@]6(C(=O)NCCCCCC(=O)O)CC[C@]45C)[C@]3(C)CO)OC[C@H](O)[C@@H]2O)[C@H](O)[C@H](O)[C@H]1O	IC50	27.4

Bench note, SMMC-7721: C[C@H]1O[C@@H](O[C@H]2[C@H](O[C@H]3CC[C@@]4(C)[C@@H](CC[C@]5(C)[C@@H]4CC(=O)[C@@H]4[C@@H]6CC(C)(C)CC[C@]6(C(=O)NCC(=O)O)CC[C@]45C)[C@]3(C)CO)OC[C@H](O)[C@@H]2O)[C@H](O)[C@H](O)[C@H]1O , IC50 reads 44
